Target: huPA-H99Y K143A (Homo sapiens, UniProt P00749, H272Y/K320A)
Construct: To ensure that the uPAs purified from the conditioned media were completely in the two-chain form, they were treated with plasmin; hexa-His (C); made in house; host or cells: HEK293 6E suspension cells
Experiment: Ki for inhibition of huPA-H99Y-K143A, chromogenic substrate
Type: biochemical
Details: 37°C; means ± S.D.; read-out: K i for inhibition of huPA-H99Y-K143A
Description: Determination of Ki values The initial reaction velocities were monitored at an absorbance of 405 nm. The inhibition constants (K i) were subsequently determined from the non-linear regression analyses of plots for V i/V o versus [I]0, using Equation 2, derived under assumption of competitive inhibition: [drawing 2] […]
Bridge positions count the residues as written; N and C are the ends. Square brackets hold non-standard residues; d marks the D form. Peptide text beside a SMILES is read from it. Ala(1-amidino-4-piperidyl) = N=C(N)N1CCC(C[C@H](N)C(=O)O)CC1; Phe(4-guanidino) = N=C(N)Nc1ccc(C[C@H](N)C(=O)O)cc1
Measured Metric: pKi
Remember the convention: pKi equals -log10 of concentration in molar.

See these solved cases before continuing.
[
  {
    "Compound": "CC(=O)N[C@H]1CSSC[C@@H](C(N)=O)NC(=O)[C@H](C)NC(=O)[C@H](CC(C)C)NC(=O)[C@H](Cc2ccc(O)cc2)NC(=O)[C@H](CCCNC(=N)N)NC(=O)[C@H](CO)NC(=O)[C@H](Cc2ccc(O)cc2)NC(=O)[C@H](C)NC(=O)[C@@H]2CCCN2C1=O [Mupain-1 D9A, CPAYSRYLAC] (Ac-CPAYSRYLAC-NH2; disulfide 1-10)",
    "Measured Metric": "pKi",
    "Reported Result": 5.06
  },
  {
    "Compound": "CC(=O)N[C@H]1CSSC[C@@H](C(N)=O)NC(=O)[C@H](CC(=O)O)NC(=O)[C@H](CC(C)C)NC(=O)[C@H](Cc2ccc(O)cc2)NC(=O)[C@H](CC2CCN(C(=N)N)CC2)NC(=O)[C@H](CO)NC(=O)[C@H](Cc2ccc(O)cc2)NC(=O)[C@H](C)NC(=O)[C@@H]2CCCN2C1=O [Mupain-1-16] (Ac-CPAYS[Ala(1-amidino-4-piperidyl)]YLDC-NH2; disulfide 1-10)",
    "Measured Metric": "pKi",
    "Reported Result": 5.95
  }
]

For the compound CC(=O)N[C@H]1CSSC[C@@H](C(N)=O)NC(=O)[C@H](CC(=O)O)NC(=O)[C@H](CC(C)C)NC(=O)[C@H](Cc2ccc(O)cc2)NC(=O)[C@H](Cc2ccc(NC(=N)N)cc2)NC(=O)[C@H](CO)NC(=O)[C@H](Cc2ccc(O)cc2)NC(=O)[C@H](C)NC(=O)[C@@H]2CCCN2C1=O [Mupain-1-12, CPAYS[4-guanidino-phenyl-alanine]YLDC] (Ac-CPAYS[Phe(4-guanidino)]YLDC-NH2; disulfide 1-10) , the measured pKi on huPA-H99Y K143A (Homo sapiens, UniProt P00749, H272Y/K320A) was 5.67

For the compound CC(=O)N[C@H]1CSSC[C@@H](C(N)=O)NC(=O)[C@H](C)NC(=O)[C@H](CC(C)C)NC(=O)[C@H](Cc2ccc(O)cc2)NC(=O)[C@H](CC2CCN(C(=N)N)CC2)NC(=O)[C@H](CO)NC(=O)[C@H](Cc2ccc(O)cc2)NC(=O)[C@H](C)NC(=O)[C@@H]2CCCN2C1=O [Mupain-1-16 D9A] (Ac-CPAYS[Ala(1-amidino-4-piperidyl)]YLAC-NH2; disulfide 1-10) , the measured pKi on huPA-H99Y K143A (Homo sapiens, UniProt P00749, H272Y/K320A) was 6.73

Hey, just so you know, these numbers are from paper PMC4278837.
